Value source: the RNAGym collection of RNA variant scans (doi:10.1073/pnas.2313332121)

B1: TPR t1 (parent)
chain: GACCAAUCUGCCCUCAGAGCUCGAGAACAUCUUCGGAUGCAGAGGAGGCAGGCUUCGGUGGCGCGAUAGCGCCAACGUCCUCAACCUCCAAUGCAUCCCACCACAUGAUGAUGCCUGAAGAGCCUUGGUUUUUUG

- Variants of: B1
- experimental_details: polymerase ribozyme fitness, log enrichment relative to wild type (log ratio); higher = more active; in vitro selection for triplet polymerase activity
Lab note: anything with polymerase ribozyme fitness (log ratio) at or over -2 counts as met; the rest go in not met.

Asked: Is the recorded value of polymerase ribozyme fitness (log ratio) equal to or greater than -2 for this variant? G19C A41U U130C
Given back: not met

Asked: Check if polymerase ribozyme fitness (log ratio) >= -2 (inclusive). Item: A121G U125A
Given back: met

Asked: Hello, I need to know if G113A has measured polymerase ribozyme fitness (log ratio) not below -2. Thanks!
Given back: met

Asked: API: above_or_equal(metric=polymerase ribozyme fitness (log ratio), cutoff=-2) for item G23C C53U U92G C123U
Given back: not met

Asked: Given C20U A95G C104A U109C C114U C124A , state whether its polymerase ribozyme fitness (log ratio) is at least -2.
Given back: not met

Asked: Is polymerase ribozyme fitness (log ratio) for C15U G42U G44C C94U at or above -2?
Given back: not met

Asked: Reported polymerase ribozyme fitness (log ratio) reaches at least -2 for A26U A95G ?
Given back: not met

Asked: API: above_or_equal(metric=polymerase ribozyme fitness (log ratio), cutoff=-2) for item U7C G42C C72A C88U C115U U133A
Given back: met

Asked: Can G69U C70G C88U C115A be said to have polymerase ribozyme fitness (log ratio) at or above -2?
Given back: met
